Source: patent US20190241669A1

Overview of recorded kon for various binders
biological target: T1, cynomolgus monkey BCMA (cynomolgus monkey, UniProt A0A2K5UD97 1-53); assay: SPR, IgG on chip, cyBCMA analyte
T1 construct: Soluble analyte in SPR; construct not described; also called cyBCMA; Cyno BCMA
T1 sequence (A0A2K5UD97 entry or part of it): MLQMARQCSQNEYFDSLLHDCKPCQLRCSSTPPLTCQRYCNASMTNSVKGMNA
The reply should contain only the number, in M⁻¹ s⁻¹.

Recorded kon, per entry:
BINDER | UNIT_LABEL | NUMERIC_RESULT
COMBO_Rd4_0.6nM_C11 (antibody, V domains shown, IgG) VH: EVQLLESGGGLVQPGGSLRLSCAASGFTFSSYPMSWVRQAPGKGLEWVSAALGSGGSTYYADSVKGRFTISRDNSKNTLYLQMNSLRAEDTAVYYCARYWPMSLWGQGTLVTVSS VL: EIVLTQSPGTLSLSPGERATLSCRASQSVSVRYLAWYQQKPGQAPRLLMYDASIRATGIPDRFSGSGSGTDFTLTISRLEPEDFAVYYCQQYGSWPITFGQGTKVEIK | M⁻¹ s⁻¹ | 2.2e+06
COMBO_Rd4_0.6nM_C19 (antibody, V domains shown, IgG) VH: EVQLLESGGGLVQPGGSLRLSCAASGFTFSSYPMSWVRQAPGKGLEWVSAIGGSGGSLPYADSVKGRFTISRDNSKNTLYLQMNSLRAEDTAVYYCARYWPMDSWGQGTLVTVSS VL: EIVLTQSPGTLSLSPGERATLSCRASQSVSAVYLAWYQQKPGQAPRLLMYDASIRATGIPDRFSGSGSGTDFTLTISRLEPEDFAVYYCQQYRAWPLTFGQGTKVEIK | M⁻¹ s⁻¹ | 2.92e+06
COMBO_Rd4_6nM_C10 (antibody, V domains shown, IgG) VH: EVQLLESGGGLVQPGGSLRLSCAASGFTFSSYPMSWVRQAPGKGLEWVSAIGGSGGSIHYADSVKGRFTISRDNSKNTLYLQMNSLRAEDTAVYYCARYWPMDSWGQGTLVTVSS VL: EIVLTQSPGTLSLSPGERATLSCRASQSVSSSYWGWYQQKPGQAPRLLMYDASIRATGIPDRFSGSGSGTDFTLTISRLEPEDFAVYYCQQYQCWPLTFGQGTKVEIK | M⁻¹ s⁻¹ | 1.52e+06
COMBO_Rd4_0.6nM_C17 (antibody, V domains shown, IgG) VH: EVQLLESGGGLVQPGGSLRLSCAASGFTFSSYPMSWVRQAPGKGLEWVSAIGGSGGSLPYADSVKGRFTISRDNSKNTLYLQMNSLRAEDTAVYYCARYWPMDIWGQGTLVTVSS VL: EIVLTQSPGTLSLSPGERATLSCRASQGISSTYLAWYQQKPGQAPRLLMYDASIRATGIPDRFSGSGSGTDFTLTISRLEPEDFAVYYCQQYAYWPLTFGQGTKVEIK | M⁻¹ s⁻¹ | 3.06e+06
COMBO_Rd4_6nM_C22 (antibody, V domains shown, IgG) VH: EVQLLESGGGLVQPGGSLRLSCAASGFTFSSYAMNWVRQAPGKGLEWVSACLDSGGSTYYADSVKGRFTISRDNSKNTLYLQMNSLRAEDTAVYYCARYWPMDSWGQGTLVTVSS VL: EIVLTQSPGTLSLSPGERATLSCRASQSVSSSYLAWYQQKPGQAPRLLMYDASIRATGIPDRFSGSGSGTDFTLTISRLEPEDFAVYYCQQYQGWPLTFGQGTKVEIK | M⁻¹ s⁻¹ | 1.7e+06
A02_Rd4_0.6nM_C26 (antibody, V domains shown, IgG) VH: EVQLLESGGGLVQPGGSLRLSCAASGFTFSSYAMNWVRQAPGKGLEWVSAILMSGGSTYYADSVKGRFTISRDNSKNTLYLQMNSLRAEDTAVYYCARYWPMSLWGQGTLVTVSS VL: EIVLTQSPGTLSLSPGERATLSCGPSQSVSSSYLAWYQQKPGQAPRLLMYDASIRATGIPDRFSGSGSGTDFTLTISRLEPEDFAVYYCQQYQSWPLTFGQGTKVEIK | M⁻¹ s⁻¹ | 2.71e+06

Qu. # get_value(readout='kon', item= P5A2_VHVL (antibody, V domains shown, IgG) VH: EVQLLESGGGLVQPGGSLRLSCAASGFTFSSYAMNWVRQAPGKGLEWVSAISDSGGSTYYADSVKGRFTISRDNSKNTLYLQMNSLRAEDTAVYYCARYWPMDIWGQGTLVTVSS VL: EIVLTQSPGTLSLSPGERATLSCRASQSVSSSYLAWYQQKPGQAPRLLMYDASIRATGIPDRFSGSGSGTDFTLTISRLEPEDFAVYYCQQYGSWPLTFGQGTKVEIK )
Ans. 1.61e+06

Qu. For C01_Rd4_6nM_C24 (antibody, V domains shown, IgG) VH: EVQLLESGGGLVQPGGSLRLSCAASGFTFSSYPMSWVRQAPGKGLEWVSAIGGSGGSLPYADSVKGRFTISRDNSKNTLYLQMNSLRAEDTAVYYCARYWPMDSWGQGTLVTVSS VL: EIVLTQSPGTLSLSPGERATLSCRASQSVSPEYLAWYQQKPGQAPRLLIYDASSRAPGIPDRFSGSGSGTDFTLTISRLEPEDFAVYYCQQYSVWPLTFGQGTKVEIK then?
Ans. 3.17e+06

Qu. Try this binder next: COMBO_Rd4_0.6nM_C05 (antibody, V domains shown, IgG) VH: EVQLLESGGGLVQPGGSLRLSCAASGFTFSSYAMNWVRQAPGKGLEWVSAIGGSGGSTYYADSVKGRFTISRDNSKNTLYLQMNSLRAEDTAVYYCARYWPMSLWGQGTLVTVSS VL: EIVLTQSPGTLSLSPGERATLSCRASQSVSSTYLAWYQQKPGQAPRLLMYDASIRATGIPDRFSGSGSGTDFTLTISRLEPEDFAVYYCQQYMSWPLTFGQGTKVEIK
Ans. 1.94e+06

Qu. Input COMBO_Rd4_6nM_C07 (antibody, V domains shown, IgG) VH: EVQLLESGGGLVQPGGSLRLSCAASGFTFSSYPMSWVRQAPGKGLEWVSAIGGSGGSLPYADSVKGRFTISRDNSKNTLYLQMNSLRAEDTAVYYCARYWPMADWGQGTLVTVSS VL: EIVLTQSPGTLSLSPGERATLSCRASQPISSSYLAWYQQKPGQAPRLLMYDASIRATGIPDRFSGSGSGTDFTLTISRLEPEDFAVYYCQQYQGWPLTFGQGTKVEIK
Ans. 3.94e+06
